System: Plasmodium berghei
Test: Screen against P. berghei liver stage (PbLuc), transformed with Luciferase, at 10uM
Format: functional, HepG2
Conditions: tested at 10 uM
The whole screen tested about 69,000 compounds, of which about 8,600 (12%) showed an effect of 50% or more. The list comes from a sample in which strong results are over-represented; it also holds close analogues and randomly drawn compounds.
Under this convention, Criterion met denotes INHIBITION strictly below 20% and Criterion not met denotes INHIBITION at or above 20%.

compound="CN(C)c1cncc(C2CCCN2S(=O)(=O)c2cn(C)cn2)n1 (stereo unspecified)" cat="Criterion not met"
compound=CC(C)CCNc1nc(C(=O)NC2CC2)cs1 cat="Criterion met"
compound=CCNC(=O)CN(CC)C(=O)c1csc(Cc2ccccc2F)n1 cat="Criterion not met"
compound=CC(C)NC(=O)CN(C)C(=O)c1csc(Cc2ccccc2F)n1 cat="Criterion not met"
compound="COc1ccc(C2CCCN2Cc2nc3c(cnn3C)c(=O)[nH]2)cc1 (stereo unspecified)" cat="Criterion met"
compound="NCC1CCC(C(NC(=O)c2cccc(F)c2)c2ccccn2)CC1 (stereo unspecified)" cat="Criterion met"

====

Tested on: Plasmodium berghei
Assay: Screen against P. berghei liver stage (PbLuc), transformed with Luciferase, at 10uM
Type: functional, HepG2
Conditions: tested at 10 uM
About 8,600 (12%) of roughly 69,000 compounds showed an effect of 50% or more. What follows is part of a selection rich in strong results, with near analogues and random picks from the rest.
# label = Satisfied if INHIBITION >= 20% else Not satisfied

molecule=CCCNc1ncc(CN2C[C@@H]3CC[C@H]2CN(C2CCOCC2)C3)cn1 cat="Not satisfied"
molecule=CNC(=O)[C@@H]1CN(C(=O)COC)C[C@H]1c1ccnc(N2CCCC2)n1 cat=Satisfied
molecule="CNC(=O)c1n[nH]c2c1C(c1cccc3nsnc13)CC(=O)N2 (stereo unspecified)" cat=Satisfied
molecule=CCNc1ncc(CN2C[C@H](C3CC3)[C@@H](N)C2)cn1 cat=Satisfied
molecule=CCc1ncc(CN2C[C@@H]3CC[C@H]2CN(C(=O)C2CCC2)C3)cn1 cat=Satisfied
molecule="CC(CO)NC(=O)c1ccc2[nH]/c(=N\\S(C)(=O)=O)sc2c1 (stereo unspecified)" cat="Not satisfied"
molecule=c1cnc(-c2nc(CN3CCC(c4ccn[nH]4)CC3)cs2)nc1 cat="Not satisfied"
molecule="Cc1n[nH]c(C)c1CCC(=O)N1CCC(O)(CN2CCOCC2)C1 (stereo unspecified)" cat=Satisfied
molecule=c1cnc(-c2nc(CN3CCN(CC4CC4)CC3)cs2)nc1 cat=Satisfied
molecule="Cc1n[nH]c(C)c1CC(=O)N1CCC(O)(CN2CCOCC2)C1 (stereo unspecified)" cat="Not satisfied"
molecule=CCNc1ncc(CN2C[C@@H](C(=O)O)[C@H](C3CC3)C2)cn1 cat=Satisfied

====

Tested on: Plasmodium berghei
Experiment: Screen against P. berghei liver stage (PbLuc), transformed with Luciferase, at 10uM
Type: functional, HepG2
Conditions: tested at 10 uM
In all, about 69,000 compounds went through this assay and about 8,600 (12%) showed an effect of 50% or more. This excerpt belongs to a sample that is enriched for strong results.
# label = t if INHIBITION >= 20% else f

compound="CC(C)c1noc(C(C)N2CCN(Cc3cccs3)CC2)n1 (stereo not given)" cat=f
compound=Cc1cc(-c2nc(-c3c(C)ncc4c3CCNC4)no2)nc(C)n1 cat=t
compound="Cn1ccnc1CN1CCCC(CCc2ccc(F)c(F)c2)C1 (stereo not given)" cat=t
compound="COc1ccnc(CN2CCCC(CCc3ccc(F)cc3)C2)c1OC (stereo not given)" cat=t
compound="O=C(C[S+]([O-])Cc1ccccc1F)N1CCc2sccc2C1 (stereo not given)" cat=f
compound="O=C(C[S+]([O-])Cc1ccc(F)cc1)N1CCc2sccc2C1 (stereo not given)" cat=t
compound="CSCC(C)N(C)S(=O)(=O)c1ccc(Cl)cc1C#N (stereo not given)" cat=t
compound=Cc1nc2cc(O)nn2c(C)c1CCC(=O)NCCc1ccccc1 cat=t
compound="Nc1nccnc1CC1CCCN(Cc2c[nH]c3ccccc23)C1 (stereo not given)" cat=t
compound="Cc1c(C(C)NC(=O)C2CCCCC2)cnn1C (stereo not given)" cat=f
compound="CC(C)c1nn(C)c(N(C)C)c1CNC(C)c1ccc2c(c1)OCO2 (stereo not given)" cat=t
compound="CCN(CC(C)C#N)C(=O)CNc1ccc(F)c(C)c1 (stereo not given)" cat=f
compound="Cc1c(C(C)NC(=O)C2CCCC2)cnn1C (stereo not given)" cat=f
compound="O=C(O)COc1ccc(CN2CCCC(CCc3ccccc3)C2)cc1 (stereo not given)" cat=t
compound=Cc1nc(NC(=O)CCc2c(C)nc3cc(O)nn3c2C)sc1C cat=f
compound="Cc1cc(C)nc(C2CCN(C(=O)CCn3ncc4ccccc43)C2)n1 (stereo not given)" cat=f
compound="COCC1CCCCN1C(=O)c1cc(Cn2ccc3ccccc32)[nH]n1 (stereo not given)" cat=f
compound=CCN(C)S(=O)(=O)c1ccc(Cl)cc1C#N cat=t
compound=Cc1ncc2c(c1-c1noc(-c3cscn3)n1)CCNC2 cat=t
compound=CCN(CC)C(=O)CCc1c(C)nc2cc(O)nn2c1C cat=t
compound=COC(=O)CCc1c(C)nc2cc(O)nn2c1C cat=t
compound=CCNC(=O)CCc1c(C)nc2cc(O)nn2c1C cat=t
compound="CCN(CC(C)C#N)C(=O)CNc1cc(Cl)ccc1C(N)=O (stereo not given)" cat=f
compound="CCN(CC(C)C#N)C(=O)CNc1ccc(C(N)=O)c(C)c1 (stereo not given)" cat=t
compound=CC(C)CN(C)S(=O)(=O)c1ccc(Cl)cc1C#N cat=f

====

Each record here notes measured INHIBITION.
Tested on: Plasmodium berghei
Experiment: Screen against P. berghei liver stage (PbLuc), transformed with Luciferase, at 10uM
Format: functional, HepG2
Conditions: tested at 10 uM
The whole screen tested about 69,000 compounds, of which about 8,600 (12%) showed an effect of 50% or more. Many of the other results were omitted from the sample, so strong results are more common in it than they were.
endpoint_name: INHIBITION (%)

compound=CC(C)(O)c1cn(C2CCN(C(=O)CCc3ccncc3)CC2)nn1 output_unit=% result_number=23.9
compound=Cn1cccc1C(=O)N1CC[C@@H]2[C@@H]1CC(=O)N2CCN1CCOCC1 output_unit=% result_number=1.9
compound=Cn1cccc1C(=O)N1CC[C@H]2[C@@H]1CCC(=O)N2c1ccccc1 output_unit=% result_number=43.8
compound=Cn1cccc1C(=O)N1CC[C@H]2[C@H]1CCN2CC1CC1 output_unit=% result_number=55.6
compound="Cn1ccnc1CN1CCC(F)(F)C2(CCN(c3cnccn3)C2)C1 (stereo not given)" output_unit=% result_number=-38.9
compound=Cn1cccc1C(=O)N1CC[C@@H]2[C@@H]1CC(=O)N2CC1CCOCC1 output_unit=% result_number=51.2
compound=O=C1C[C@H]2[C@@H](CCN2C(=O)c2ccccc2)N1CCN1CCOCC1 output_unit=% result_number=30.1
compound=O=C(c1ccoc1)N1CC[C@H]2[C@H]1CCN2CC1CC1 output_unit=% result_number=-6.05
compound="Cn1cc(Cl)cc1C(=O)N1CCC2(CCCN(CC3CCC3)C2=O)C1 (stereo not given)" output_unit=% result_number=19.5
compound=Cn1cccc1C(=O)N1CC[C@H]2[C@@H]1CCC(=O)N2CC1CC1 output_unit=% result_number=54.1

====

Tested on: Plasmodium berghei
Experiment: Screen against P. berghei liver stage (PbLuc), transformed with Luciferase, at 10uM
Format: functional, HepG2
Details: tested at 10 uM
The whole screen tested about 69,000 compounds, of which about 8,600 (12%) showed an effect of 50% or more. The full list was thinned out, with strong results kept by preference.
endpoint_name: INHIBITION (%)

molecule=Cc1ccoc1C(=O)N1C[C@@H](OCC2CC2)[C@H]2OCCC[C@H]21 result_number=55.2
molecule="CC(=O)NC1CCCN(C(=O)NCc2cccnc2)C1 (stereo not given)" result_number=-51.5
molecule="Cc1cccc(C2(CNC(=O)C(C)S(C)(=O)=O)CCCC2)c1 (stereo not given)" result_number=2.39
molecule=Cc1ccoc1C(=O)N1C[C@@H](OCC2CCOCC2)[C@H]2OCCC[C@H]21 result_number=57.1
molecule="Cc1ccc(C(N)c2cccc(S(C)(=O)=O)c2)cc1 (stereo not given)" result_number=38.7
molecule=Cc1ccc(C(=O)N2C[C@@H](OCC3CCOCC3)[C@H]3OCCC[C@H]32)o1 result_number=41.5
molecule="NC(c1ccc(F)cc1)c1cccs1 (stereo not given)" result_number=55
molecule=Cc1ccoc1C(=O)N1C[C@H](OCc2cccnc2)[C@H]2OCCC[C@H]21 result_number=33.4
molecule=Cc1ccoc1C(=O)N1CCO[C@H]2[C@H](OCC3CCOCC3)CC[C@@H]21 result_number=-0.182
molecule=Cc1cccc(C2(CNC(=O)CCNS(C)(=O)=O)CCCC2)c1 result_number=67.5
